- Target or test system: Mtb MurX (Mycobacterium tuberculosis, UniProt P9WMW7)
- Sequence (P9WMW7 whole entry): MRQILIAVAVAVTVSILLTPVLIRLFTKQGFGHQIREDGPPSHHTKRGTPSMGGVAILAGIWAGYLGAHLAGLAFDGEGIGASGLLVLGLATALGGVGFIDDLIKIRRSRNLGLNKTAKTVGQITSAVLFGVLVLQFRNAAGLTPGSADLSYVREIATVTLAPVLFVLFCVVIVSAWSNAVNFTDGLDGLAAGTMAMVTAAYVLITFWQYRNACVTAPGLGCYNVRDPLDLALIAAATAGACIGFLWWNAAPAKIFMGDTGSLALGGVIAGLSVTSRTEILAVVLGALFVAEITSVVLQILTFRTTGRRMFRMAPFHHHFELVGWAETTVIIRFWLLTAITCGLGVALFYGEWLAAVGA
- Assay name: Radiochemical (TLC) MurX-MurG coupled inhibition assay in Mtb mc2 6230 membranes
- Assay type: biochemical
- Reported conditions: 200 nM inhibitor, decrease in lipid II formation
Parameter: inhibition at 0.2 µM (%)
Answer with a number only, understood to be in %.

Worked set:
>>> reported_result("C[C@@H]([C@H](NC(=O)[C@H](CC1CCCCC1)NC(=O)N[C@@H](Cc1c[nH]c2ccccc12)C(=O)O)C(=O)NC[C@H]1C[C@@H](O)[C@H](n2ccc(=O)[nH]c2=O)O1)N(C)C(=O)[C@@H](N)Cc1cccc(O)c1")
100
>>> reported_result("CC[C@@H](C)[C@H](NC(=O)N[C@@H](Cc1c[nH]c2ccccc12)C(=O)O)C(=O)N[C@H](C(=O)NC[C@H]1C[C@@H](O)[C@H](n2ccc(=O)[nH]c2=O)O1)[C@H](C)N(C)C(=O)CN")
46
>>> reported_result("CCCCC[C@H](NC(=O)N[C@@H](Cc1c[nH]c2ccccc12)C(=O)O)C(=O)N[C@H](C(=O)NC[C@H]1C[C@@H](O)[C@H](n2ccc(=O)[nH]c2=O)O1)[C@H](C)N(C)C(=O)CN")
59

What measured inhibition at 0.2 µM goes with `C[C@@H]([C@H](NC(=O)[C@@H](NC(=O)N[C@@H](Cc1c[nH]c2ccccc12)C(=O)O)c1ccccc1)C(=O)NC[C@H]1C[C@@H](O)[C@H](n2ccc(=O)[nH]c2=O)O1)N(C)C(=O)CN` ?
51

What measured inhibition at 0.2 µM goes with `CC(C)C[C@H](NC(=O)N[C@@H](Cc1c[nH]c2ccccc12)C(=O)O)C(=O)N[C@H](C(=O)NC[C@H]1C[C@@H](O)[C@H](n2ccc(=O)[nH]c2=O)O1)[C@H](C)N(C)C(=O)[C@@H](N)Cc1ccccc1` ?
27

What measured inhibition at 0.2 µM goes with C[C@@H]([C@H](NC(=O)[C@H](CC[S+](C)[O-])NC(=O)N[C@@H](Cc1c[nH]c2ccccc12)C(=O)O)C(=O)NC[C@H]1C[C@@H](O)[C@H](n2ccc(=O)[nH]c2=O)O1)N(C)C(=O)[C@@H](N)Cc1cccc(O)c1 (stereo partly drawn) [Compound 6, Dihydrosansanmycin C] ?
68

What measured inhibition at 0.2 µM goes with `C[C@@H]([C@H](NC(=O)[C@H](CC1CCCCC1)NC(=O)N[C@@H](Cc1c[nH]c2ccccc12)C(=O)O)C(=O)NC[C@H]1C[C@@H](O)[C@H](n2ccc(=O)[nH]c2=O)O1)N(C)C(=O)CN` ?
100

What measured inhibition at 0.2 µM goes with `CC(C)C[C@H](NC(=O)N[C@@H](Cc1c[nH]c2ccccc12)C(=O)O)C(=O)N[C@H](C(=O)NC[C@H]1C[C@@H](O)[C@H](n2ccc(=O)[nH]c2=O)O1)[C@H](C)N(C)C(=O)[C@@H](N)CCCN` ?
5

What measured inhibition at 0.2 µM goes with `C[C@@H]([C@H](NC(=O)[C@H](CCCCN)NC(=O)N[C@@H](Cc1c[nH]c2ccccc12)C(=O)O)C(=O)NC[C@H]1C[C@@H](O)[C@H](n2ccc(=O)[nH]c2=O)O1)N(C)C(=O)CN` ?
47

# credit: paper PMC5337940
